Origin of values: PubChem BioAssay (Tox21)

# PROTOCOL_SUMMARY: qHTS assay to test for compound auto fluorescence at 590 nm (red) in HEK293 cells (AID 720679)
# EXPERIMENTAL_CONTEXT: red autofluorescence 540/590 nm; series mostly up to 91.3 µM
# Excerpt: National Center for Advancing Translational Sciences [NCATS] NIH Chemical Genomics Center [NCGC] U.S. Environmental Protection Agency [EPA] National Institutes of Environmental Health Sciences [NIEHS] National Toxicology Program [NTP] U.S. Food and Drug Administration [FDA] Compound auto fluorescence often interferes with screening of the compound library against various biological targets and signaling pathways. Some of these compounds may have fluorophoric properties. […]
Active and inactive are the calls of the source. Calls come from the whole dose curve; as a rule, active = well fitted curve in the direction sought with a large enough effect in the repeat runs; inconclusive = weak or mixed curves; inactive = flat fitted curve, though single readings scatter.
MEASURED_METRIC: fluorescence, % of fluorescent control

Some molecules with known fluorescence, % of fluorescent control results, for comparison:
{"MOLECULE": "CC(C)C(OC(=O)c1ccccc1)C(C)(C)COC(=O)c1ccccc1 (centres undefined)", "MEASUREMENT": "inactive"}
{"MOLECULE": "CC1=CC(=O)CC(C)(C)C1(O)/C=C/C(C)=C\\C(=O)O (centres undefined)", "MEASUREMENT": "inactive"}
{"MOLECULE": "CC(C)(CCl)c1ccccc1", "MEASUREMENT": "inactive"}
{"MOLECULE": "CC1=NN(c2ccc(C(=O)O)cc2)C(=O)C1", "MEASUREMENT": "inactive"}
{"MOLECULE": "CCN(CC)CCNC(=O)c1ccc(NC(C)=O)cc1", "MEASUREMENT": "inactive"}

Record CCCOc1ccc(S(=O)(=O)N2CCN(CC)CC2)cc1-c1nc2c(CC)n(Cc3ccccn3)nc2c(=O)[nH]1 , field fluorescence, % of fluorescent control: inactive

Record C=CC(=C)CCCC(C)(C)OC(C)=O , field fluorescence, % of fluorescent control: inactive

Record CC(C)CCCCCCOC(=O)CCCCC(=O)OCCCCCCC(C)C , field fluorescence, % of fluorescent control: inactive

Record CC1C2CC(CC2C2CCCC(O)C2)C1(C)C (centres undefined) , field fluorescence, % of fluorescent control: inactive

Record CC1CC(=O)NN=C1c1ccc(NCC(C)(C)NCC(O)COc2cc(Cl)ccc2C#N)cc1 (centres undefined) , field fluorescence, % of fluorescent control: inactive

Record CC(=O)Oc1ccc2c(c1)CC[C@@H]1[C@@H]2CC[C@]2(C)[C@@H](O)CC[C@@H]12 , field fluorescence, % of fluorescent control: inactive

Record C=CC(=O)NCOCC(C)C , field fluorescence, % of fluorescent control: inactive

Record Cc1cc(S(=O)(=O)O)ccc1N=Nc1c(O)ccc2ccccc12 , field fluorescence, % of fluorescent control: inactive

Record CCCCC(CC)CNCC(CC)CCCC (centres undefined) , field fluorescence, % of fluorescent control: inactive

Record Cc1cc(C(=C2C=CC(=Nc3ccc(S(=O)(=O)O)cc3S(=O)(=O)O)C=C2)c2ccc(Nc3ccc(S(=O)(=O)O)cc3)cc2)ccc1N , field fluorescence, % of fluorescent control: inactive
